Here, each record is paired with measured Δ Temp (° C.) data.
Procedure Details: Rat telemetry protocol, core body temperature
Format: in vivo
Measurement Parameters: core body temperature of rats one hour post dosing, 100 μmol/kg p.o., relative to vehicle
Record the value in °C, omitting the unit from your answer.

1. CC1(C)C[C@@H](NC(=O)Nc2cccc3[nH]ncc23)c2ccc(C(F)(F)F)cc2O1 ... −2.5

stdin: Δ Temp (° C.) lookup needed for Cc1cc2c(NC(=O)N[C@@H]3CC(CF)(CF)Oc4ccccc43)cccc2cn1 , thanks.
stdout: 0.0

stdin: Δ Temp (° C.) lookup needed for Cn1ncc2c(NC(=O)N[C@@H]3CC(CF)(CF)Oc4c(OC(F)(F)F)cccc43)cccc21 , thanks.
stdout: −0.3

stdin: Δ Temp (° C.) lookup needed for Cc1cc2c(NC(=O)N[C@@H]3CC(CF)(CF)Oc4ccc(F)cc43)cccc2cn1 , thanks.
stdout: 0.0

stdin: Δ Temp (° C.) lookup needed for Cc1cc2c(NC(=O)N[C@@H]3CC(CF)(CF)Oc4cc(Br)ccc43)cccc2cn1 , thanks.
stdout: −0.7
